# TARGET_OF_ASSAY: T1, EsCas13d, nuclease-dead (Eubacterium siraeum, UniProt B0MS50, R295A;H300A;R849A;H854A)
# T1 sequence: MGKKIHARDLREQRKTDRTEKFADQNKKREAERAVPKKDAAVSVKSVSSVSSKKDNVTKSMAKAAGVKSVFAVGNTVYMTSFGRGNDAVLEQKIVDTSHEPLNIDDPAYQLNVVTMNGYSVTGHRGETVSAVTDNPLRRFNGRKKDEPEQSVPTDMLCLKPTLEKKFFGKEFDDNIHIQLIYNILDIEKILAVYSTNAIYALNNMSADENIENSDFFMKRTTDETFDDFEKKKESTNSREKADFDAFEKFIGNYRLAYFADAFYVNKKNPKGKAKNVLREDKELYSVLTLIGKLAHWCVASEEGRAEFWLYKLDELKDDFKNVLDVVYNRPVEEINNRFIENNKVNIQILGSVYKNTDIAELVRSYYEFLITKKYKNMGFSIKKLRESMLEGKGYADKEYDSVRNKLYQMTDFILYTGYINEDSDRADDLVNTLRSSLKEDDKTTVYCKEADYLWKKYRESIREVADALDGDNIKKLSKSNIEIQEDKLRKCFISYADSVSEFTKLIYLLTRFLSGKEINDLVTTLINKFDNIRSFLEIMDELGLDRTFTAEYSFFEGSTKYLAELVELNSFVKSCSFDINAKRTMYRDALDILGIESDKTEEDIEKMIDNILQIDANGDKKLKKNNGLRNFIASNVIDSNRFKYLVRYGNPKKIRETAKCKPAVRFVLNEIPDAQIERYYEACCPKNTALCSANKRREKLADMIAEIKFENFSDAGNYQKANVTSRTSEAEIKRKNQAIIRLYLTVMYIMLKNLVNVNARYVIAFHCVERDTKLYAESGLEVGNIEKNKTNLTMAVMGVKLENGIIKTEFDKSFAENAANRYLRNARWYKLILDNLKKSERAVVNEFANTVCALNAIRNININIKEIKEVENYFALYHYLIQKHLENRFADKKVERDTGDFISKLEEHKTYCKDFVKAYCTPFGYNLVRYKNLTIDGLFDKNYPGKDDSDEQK
# EXPERIMENT_SUMMARY: crRNA (strand 1, pre-loaded); Mg2+; 40 mM Tris-HCl pH 7.5, 150 mM NaCl, 6 mM MgCl2, 1 mM DTT, 0.1% Tween-20, 0.2 mg/ml BSA; 25 C; 10 min per concentration, then washed
# CONDITION_PARAMETERS: tags: His6-TwinStrep-SUMO cleaved; N-terminal SNAP kept (SNAP-Surface 488); label: 3' end held by stalled T7 RNA polymerase

# BINDER, Kd (nM)
records = [
    ("target 2 MT 5'PFS UGC 3'PFS CUG (mixed) RNA 1: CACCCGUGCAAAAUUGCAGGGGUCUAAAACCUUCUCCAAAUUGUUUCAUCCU RNA 2: GGGAAUGGAUCCACAUCUACGAAUUCUGCAGGAUGAAACAAUUUGGAGAAGCUGAGAUCGGAAGAGCACACGU", 34),
    ("target 3 U2A,U22A (mixed) RNA 1: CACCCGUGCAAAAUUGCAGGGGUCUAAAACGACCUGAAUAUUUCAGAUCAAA RNA 2: GGGAAUGGAUCCACAUCUACGAAUUCGUUAUUGAUCUGAAAUAUUCAGGACUGCAGAUCGGAAGAGCACACGU", 32.8),
    ("target 2 MT 5'PFS CAU 3'PFS UGC (mixed) RNA 1: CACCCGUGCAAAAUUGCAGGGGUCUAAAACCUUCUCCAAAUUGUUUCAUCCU RNA 2: GGGAAUGGAUCCACAUCUACGAAUUCCAUAGGAUGAAACAAUUUGGAGAAGUGCAGAUCGGAAGAGCACACGU", 3.1),
    ("target 3 A5G,C6G (mixed) RNA 1: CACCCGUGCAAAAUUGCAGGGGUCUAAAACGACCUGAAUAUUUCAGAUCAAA RNA 2: GGGAAUGGAUCCACAUCUACGAAUUCGUUUUUGAUCUGAAAUAUUGGGGUCUGCAGAUCGGAAGAGCACACGU", 20.4),
    ("target 1 insU 3' of 12,insA 3' of 4 (mixed) RNA 1: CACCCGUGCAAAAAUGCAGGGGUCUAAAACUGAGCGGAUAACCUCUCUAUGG RNA 2: GGGAAUGGAUCCACAUCUACGAAUUCGUACCAUAGAGAGGUUUAUCCGCAUCACCGAGAUCGGAAGAGCACACGU", 6.6),
    ("target 2 MT 5'PFS GGG 3'PFS CAC (mixed) RNA 1: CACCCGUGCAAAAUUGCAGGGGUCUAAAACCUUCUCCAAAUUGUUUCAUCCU RNA 2: GGGAAUGGAUCCACAUCUACGAAUUCGGGAGGAUGAAACAAUUUGGAGAAGCACAGAUCGGAAGAGCACACGU", 9.4),
    ("target 1 del7 (mixed) RNA 1: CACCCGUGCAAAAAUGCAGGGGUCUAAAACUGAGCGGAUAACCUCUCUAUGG RNA 2: GGGAAUGGAUCCACAUCUACGAAUUCGUACCAUAGAGAGGUUAUCGCUCACCGAGAUCGGAAGAGCACACGU", 8.01),
    ("target 1 insU 3' of 15,insU 3' of 6 (mixed) RNA 1: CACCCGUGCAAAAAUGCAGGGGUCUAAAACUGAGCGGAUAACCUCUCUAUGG RNA 2: GGGAAUGGAUCCACAUCUACGAAUUCGUACCAUAGAGUAGGUUAUCCUGCUCACCGAGAUCGGAAGAGCACACGU", 35.6),
    ("target 1 MT 5'PFS CCG 3'PFS UGC (mixed) RNA 1: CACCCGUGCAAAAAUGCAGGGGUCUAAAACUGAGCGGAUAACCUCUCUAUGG RNA 2: GGGAAUGGAUCCACAUCUACGAAUUCCCGCCAUAGAGAGGUUAUCCGCUCAUGCAGAUCGGAAGAGCACACGU", 2.6),
    ("target 1 C7U,U11C (mixed) RNA 1: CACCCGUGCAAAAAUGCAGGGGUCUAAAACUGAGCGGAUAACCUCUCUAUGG RNA 2: GGGAAUGGAUCCACAUCUACGAAUUCGUACCAUAGAGAGGCUAUUCGCUCACCGAGAUCGGAAGAGCACACGU", 8.7),
    ("target 1 A1G,A20U (mixed) RNA 1: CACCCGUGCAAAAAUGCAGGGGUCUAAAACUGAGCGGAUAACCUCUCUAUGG RNA 2: GGGAAUGGAUCCACAUCUACGAAUUCGUACCUUAGAGAGGUUAUCCGCUCGCCGAGAUCGGAAGAGCACACGU", 37.8),
    ("target 1 U8A,A9G (mixed) RNA 1: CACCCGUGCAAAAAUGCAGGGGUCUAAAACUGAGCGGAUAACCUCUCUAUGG RNA 2: GGGAAUGGAUCCACAUCUACGAAUUCGUACCAUAGAGAGGUUGACCGCUCACCGAGAUCGGAAGAGCACACGU", 19.3),
    ("target 1 insU 3' of 21,insG 3' of 9 (mixed) RNA 1: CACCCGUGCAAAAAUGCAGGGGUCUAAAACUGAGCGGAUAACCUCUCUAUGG RNA 2: GGGAAUGGAUCCACAUCUACGAAUUCGUACCUAUAGAGAGGUUAGUCCGCUCACCGAGAUCGGAAGAGCACACGU", 77),
    ("target 1 G5C,U11C (mixed) RNA 1: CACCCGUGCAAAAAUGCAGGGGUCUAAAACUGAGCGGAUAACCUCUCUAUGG RNA 2: GGGAAUGGAUCCACAUCUACGAAUUCGUACCAUAGAGAGGCUAUCCCCUCACCGAGAUCGGAAGAGCACACGU", 16.8),
]
